Recorded values, source the Immune Epitope Database (IEDB).

In this section we review reported log10(Kd) values for a set of sequences.
# MEASUREMENT TARGET: HLA-A*68:01
# ASSAY NOTES: IEDB peptide-MHC binding, purified MHC/competitive/radioactivity; filed as Kd, often an IC50 or EC50 that approximates it; bounds were set here for any values at or beyond the usual limits of such assays
# MEASUREMENT PARAMETERS: source organism: Vaccinia virus WR
MEASURED PROPERTY: log10(Kd) (log10 of the value in nM)

YIYSEIKQGR	0.81
VTTKDYFSFK	2.19
DVSLIIEYK	0.55
RSSPPIPMSR	2.39
LFSTSAADIK	1.76
YTYDRVDIYY	-0.02
DSEPISILDR	2.71
LITLILSNK	1.51

====

Recorded Kd for the following sequences
# MEASUREMENT TARGET: HLA-A*24:02
# ASSAY NOTES: IEDB peptide-MHC binding, purified MHC/competitive/radioactivity; filed as Kd, often an IC50 or EC50 that approximates it; bounds were set here for any values at or beyond the usual limits of such assays
# MEASUREMENT PARAMETERS: source organism: SARS coronavirus Tor2
MEASURED PROPERTY: Kd

MYASALVLL	≥ 65.3 µM
GSIIQFPNTY	≥ 70.3 µM
CADGTRHTY	≥ 37.7 µM
HTSSMRGVY	≥ 77.6 µM
FSAVGNICY	≥ 51.6 µM

====

# MEASUREMENT TARGET: HLA-A*02:01
# ASSAY NOTES: IEDB peptide-MHC binding, purified MHC/competitive/fluorescence; bounds were set here for any values at or beyond the usual limits of such assays
# MEASUREMENT PARAMETERS: source organism: Zaire ebolavirus
# Lookup of reported IC50 keyed by entry
MEASURED PROPERTY: IC50

TSFFLWVII	≥ 503 µM
RFKRTSFFL	≥ 117 µM
KVSGTGPCA	≥ 118 µM
IVKTVLDHI	≥ 91.6 µM
RYVHKVSGT	≥ 90.9 µM
LSFTVVSNG	≥ 325 µM
LNLSGVNNL	≥ 77.5 µM
PTAWQSVGH	≥ 264 µM
MDSRPQKIW	≥ 191 µM

====

# MEASUREMENT TARGET: HLA-B*44:02
# ASSAY NOTES: IEDB peptide-MHC binding, purified MHC/competitive/radioactivity; filed as Kd, often an IC50 or EC50 that approximates it; bounds were set here for any values at or beyond the usual limits of such assays
# MEASUREMENT PARAMETERS: source organism: SARS coronavirus Tor2
pKd: −log10 of the molar value.
Label rule, in plain words: pKd of 6 and up is condition met, under 6 is condition not met.

IDYDCVSFCY	condition not met
REVKTIKVF	condition met
NEYRQYLDAY	condition not met
YEGNSPFHPL	condition not met
AEVQIDRLI	condition met
SDYDYYRYNL	condition not met
VEFLKDAWEI	condition met
RERVNINIVG	condition not met
EEAALCTFLL	condition met
LEDFKPRSQM	condition met
SEYDYVIFT	condition met

====

Here, each record is paired with measured log10 of Kd data.
# MEASUREMENT TARGET: HLA-A*02:02
# ASSAY NOTES: IEDB peptide-MHC binding, purified MHC/competitive/radioactivity; filed as Kd, often an IC50 or EC50 that approximates it; bounds were set here for any values at or beyond the usual limits of such assays
# MEASUREMENT PARAMETERS: source organism: Vaccinia virus WR
MEASURED PROPERTY: log10 of Kd (log10 of the value in µM)

LISSDGARVI	0.86
ALVSDCAST	-0.15
IINSVSIILA	-0.14
MLKLFTHDIM	-1.07
LVIRNEVNDT	0.74
ISIIVLFQR	0.83
DMICCDSRIV	1.05
